Source of measurements: the nanobody polyreactivity screen of Harvey et al. (2022)

assay.protocol: yeast display, Sf9 membrane polyspecificity reagent, FACS + sequencing; frameworks hold sequencing errors
quantity: polyreactivity (PSR sort gate)

QVQHVESGGGLVQAGCSLRLSCAASGRIFKPYVMGWYRQAPGKETELVSAISWSGGASTYYADSVKGRFTISRDNAKNTVYLQMNSLKPEDTAVYYCAADPFTIPTSEFYYWGQGTQVTVSS = low polyreactivity
QVQLVESGGGLVQAGGSLRLSCAASGNTFIGNAMGWYRQAPGKERELVAAISWSTDSTYYADSVKGRFTISRDNAKNSVYLQMNSLKPEDTAINYCAADYSHLPIAWYYYWGQGTQVTVSS = low polyreactivity

----------
assay.protocol: yeast display, Sf9 membrane polyspecificity reagent, FACS + sequencing; frameworks hold sequencing errors
quantity: polyreactivity (PSR sort gate)

For orientation, consider the following solved cases.
QDQLVESGGGLVQAGGSLRLSCAASGRTFTSNAMGRYRQAPGKERELVAAINFRGDSTYYADSVKGRFTISRDNAKNTVYLQMNSLKPEDSAVYYCAAVGGRSSYRLDYWGQGTQVTVSA = low polyreactivity
QVQLVESGGGLVQAGGSLRLSCAASGFTSAVYAMGWYRQAPGKERELVAAIRRGGSTNYADSVKGRFTISRDNAKNTVYLQMNSLKPEDTAVYYCAAAGRGWFGYWGQGTQVTVSS = high polyreactivity
QLQLVESGGGLVQAGGSLRLSCAASGFIFADYAMGWYRQAPGKERELVAAISSNGGSTYYADSVKGRFTISRDNAKNTVYLQMNSLKPEDTAVYYCAVRHRYYKDYEFDYWGQGTQVTVSS = high polyreactivity
QVQLVESGGVLVQAGGSLRLSCAASGRIFDYYAMGWYRKAPGKERELVAAITSGGTTTYYADSVKGRFTISRDNAKNTVYLQMKSLKPEDTAVYYCAKYPYHIYHTEGDYWGQATQVTVSS = low polyreactivity
QVQLVESGGGLVQAGGSLRLSCAASGRTFYRYAMGWYRQAPGKERELVATITLRGGRTYYADSVKGRFTISRDTAKNTVYLQMNSLKPEDTAVYYCAKYHWRLSFSRYPYDYWGQGTQVTVSS = high polyreactivity
QVQLVESGGGLVQAGGSLRLSCAASGRTFRSYAMGWYRQAPGKERELVVAISLSGGSTYYADSVKGRFTISRDNAKNTVYLQMNSLKPVDTAVYYCNADLIKGTYRWYEGGSQYGYWGQGTQVTVSS = low polyreactivity
QVQLVESGGGLVQAGGSLRLSCAASGRIFRRYAMGWYRQAPGKERELVAAISSTGGNTYYADSVKGRFTISRDNAKNTVYLQMNSLKPEDTAVYYCATRAFYLRGNGYWGQGTQVTVSS = high polyreactivity
QVQLVESGGGLVQAGGSLRLSCAASGFTFARYAMGWYRQAPGKERELVAAISISGGRTYYADSVKGRFSISRDNAKNTVYLQMNSLKPEDTAVYYCNKGHVPSYDYNYWGQGTQVTVSW = high polyreactivity

Respond only with polyreactivity (PSR sort gate) recorded for QVQLVESGGGLVQAGGSLRLSCAASGTFYTYAMGWYRQAPGKERELVAAINGGGRTYYADSVKGRFTISRDNAKNTVYLQMNSLKPEDTAVYYCAARPRWSPSKYDYWGQGTQVTVSS
high polyreactivity

Give polyreactivity (PSR sort gate) for QVQLVESGGGLVLAGGSLRLSCAASGYTFTIYAMGWYIQGPGKERELVSAITGRGGRTNYADSVKGRFTISRDNAKNTVYLQMNSLKPEDTAVYYCNAVTKVVYHGPYGYDYWGQGTQVTVSS
high polyreactivity

Consider the sequence QVQLVESGGGLVQAGGSLRLSCAASGSTISRYTMGWYPQAPGKERELVAAIRRSGSSTYYADSVKGRYTISRDNAKYTVYLQMNSLKREDTAVYYCAVGRYRYGYWGQGTQVTVSS . State its measured polyreactivity (PSR sort gate).
high polyreactivity
